B1: library; a variant is named by its letters at N, in order (parent)
chain: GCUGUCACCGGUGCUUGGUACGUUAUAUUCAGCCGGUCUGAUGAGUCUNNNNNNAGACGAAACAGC

Variants of: B1
assay-explanation: normalized RNA/DNA level with ligand (relative to sTRSVctl = 100) (log10 (% of sTRSVctl)); HEK293T overexpressing SLC46A1; ligand concentration (+) RNA-Seq: 6 mM; higher = less ribozyme self-cleavage, higher mRNA level
test-settings: with (6R,S)-folinic acid; ligand present: yes
observed-property: normalized RNA/DNA level with ligand (log10)
Numbers only.

Any idea what its normalized RNA/DNA level with ligand (log10) is? The variant is "CAGGCA"
2.01

Okay, here is my list. What is normalized RNA/DNA level with ligand (log10) for each of these?
1. AGGUGA
2. UGCCCG
3. GUACGC
4. GCGGCU
5. AACCAA
6. AUACUU
7. UAUGCA
8. ACAUGU

2.03
2.01
2.03
2.05
2
2.01
2.01
2.02

Okay, here is my list. What is normalized RNA/DNA level with ligand (log10) for each of these?
1. AUACCC
2. CCACUA
3. AAGUGG
4. CACGAC
5. CGUAGA
6. UAGCAC
7. AUUUCC
8. UUGCAA

1. 2.01
2. 2.02
3. 2.02
4. 2.02
5. 1.99
6. 2
7. 2.04
8. 1.99

Okay, here is my list. What is normalized RNA/DNA level with ligand (log10) for each of these?
1. CUAAGA
2. CUGUGA
3. UACUUC
4. ACCCAU

[2, 2.04, 2.03, 2.01]

Okay, here is my list. What is normalized RNA/DNA level with ligand (log10) for each of these?
1. AACAGU
2. UUGGGG

1. 2
2. 2.02
